Assay: Water solubility of drug
Format: physicochemical
Conditions: 25 °C
Quantity Kind: solubility

> print(dat)
                           structure.string       result
1  O=C(NN1CCCCC1)c1nn(-c2ccc(Cl)cc2Cl)c2c1CCC/C2=C\c1ccc(F)cc1  ≤ 0.2 ng/mL

* * *

Reported ΔHc is given for each of the following molecules.
Assay: Differential scanning calorimetry (DSC) of drug samples
Assay type: physicochemical
Conditions: DSC scanning rate 10° C./min
Quantity Kind: ΔHc (J/g)

> print(dat)
                                   molecule  result.number
1  CC(C)(C)c1ccc(C(O)CCCN2CCC(C(O)(c3ccccc3)c3ccccc3)CC2)cc1 (stereo not shown) [Crystalline terfenadine, terfenadine]         108.63
2  O=C(NN1CCCCC1)c1nn(-c2ccc(Cl)cc2Cl)c2c1CCC/C2=C\c1ccc(F)cc1 [Amorphous COMPOUND 1]              0
3  O=C(NN1CCCCC1)c1nn(-c2ccc(Cl)cc2Cl)c2c1CCC/C2=C\c1ccc(F)cc1 [Crystalline COMPOUND 1]          77.64
4  CC(C)(C)c1ccc(C(O)CCCN2CCC(C(O)(c3ccccc3)c3ccccc3)CC2)cc1 (stereo not shown) [Amorphous terfenadine, terfenadine]          10.35
